molecular target: CB1 (Mus musculus (Mouse), UniProt P47746); test: radioligand displacement assay in mouse brain membranes (Ki CB1); type: binding; settings: Table 1
Sequence (P47746 whole entry): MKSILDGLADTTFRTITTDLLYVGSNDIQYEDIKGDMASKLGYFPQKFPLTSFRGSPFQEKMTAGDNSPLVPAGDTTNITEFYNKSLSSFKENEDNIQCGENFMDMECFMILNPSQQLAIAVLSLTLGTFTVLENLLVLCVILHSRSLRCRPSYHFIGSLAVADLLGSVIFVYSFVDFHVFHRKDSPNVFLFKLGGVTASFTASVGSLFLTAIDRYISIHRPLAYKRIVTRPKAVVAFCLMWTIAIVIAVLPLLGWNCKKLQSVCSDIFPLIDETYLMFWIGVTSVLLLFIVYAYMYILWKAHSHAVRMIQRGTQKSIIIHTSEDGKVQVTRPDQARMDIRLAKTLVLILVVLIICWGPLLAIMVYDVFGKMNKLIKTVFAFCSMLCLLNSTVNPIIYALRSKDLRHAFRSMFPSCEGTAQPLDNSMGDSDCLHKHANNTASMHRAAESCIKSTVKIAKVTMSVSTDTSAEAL
assay metric: pKi
# pKi: negative log10 of molar concentration; output just the value

Query: Tell me the measured pKi of N=C(N/C(=N\S(=O)(=O)c1ccc(Cl)cc1)N1CC(c2ccccc2)C(c2ccc(Cl)cc2)=N1)c1ccccc1 (centres unmarked) , please.
Reply: 7.59

Query: Tell me the measured pKi of N=C(N/C(=N\S(=O)(=O)c1ccc(Cl)cc1)N1CC(c2ccccc2)C(c2ccc(Cl)cc2)=N1)N1CCCC1 (centres unmarked) , please.
Reply: 6.62

Query: Tell me the measured pKi of N=C(N/C(=N\S(=O)(=O)c1ccc(Cl)cc1)N1CC(c2ccccc2)C(c2ccc(Cl)cc2)=N1)c1ccncc1 (centres unmarked) , please.
Reply: 7.47

Query: Tell me the measured pKi of N=C(N/C(=N\S(=O)(=O)c1ccc(Cl)cc1)N1CC(c2ccccc2)C(c2ccc(Cl)cc2)=N1)C1CC1 (centres unmarked) , please.
Reply: 7.89

Query: Tell me the measured pKi of NN/C(=N\S(=O)(=O)c1ccc(Cl)cc1)N1CC(c2ccccc2)C(c2ccc(Cl)cc2)=N1 (centres unmarked) , please.
Reply: 7.48

* * *

molecular target: UniProtKB P47746; test: radioligand displacement assay in mouse brain membranes (Ki CB1); type: binding; details: Table 2
pKi: −log10 of the molar value.
Classify by measured pKi: 1.0 if it is equal to or exceeds 7, 0.0 if it is smaller.

Query: Has N=C(N/C(=N\S(=O)(=O)c1ccc(Cl)cc1)N1CC(c2ccccc2)C(c2ccc(Cl)cc2)=N1)c1ccncc1 (stereo not shown) a recorded pKi greater than or equal to 7?
Reply: 1.0

Query: Has CNC(N)=NC(=NS(=O)(=O)c1ccc(Cl)cc1)N1CC(c2ccccc2)C(c2ccc(Cl)cc2)=N1 (stereo not shown) a recorded pKi greater than or equal to 7?
Reply: 0.0

Query: Has N=C(N/C(=N\S(=O)(=O)c1ccc(Cl)cc1)N1CC(c2ccccc2)C(c2ccc(Cl)cc2)=N1)c1ccccc1 (stereo not shown) a recorded pKi greater than or equal to 7?
Reply: 1.0

Query: Has N=C(N/C(=N\S(=O)(=O)c1ccc(Cl)cc1)N1CC(c2ccccc2)C(c2ccc(Cl)cc2)=N1)C1CC1 (stereo not shown) a recorded pKi greater than or equal to 7?
Reply: 1.0

Query: Has N=C(N/C(=N\S(=O)(=O)c1ccc(Cl)cc1)N1CC(c2ccccc2)C(c2ccc(Cl)cc2)=N1)N1CCCC1 (stereo not shown) a recorded pKi greater than or equal to 7?
Reply: 0.0

Query: Has NC=NC(=NS(=O)(=O)c1ccc(Cl)cc1)N1CC(c2ccccc2)C(c2ccc(Cl)cc2)=N1 (stereo not shown) a recorded pKi greater than or equal to 7?
Reply: 0.0

Query: Has NN/C(=N\S(=O)(=O)c1ccc(Cl)cc1)N1CC(c2ccccc2)C(c2ccc(Cl)cc2)=N1 (stereo not shown) a recorded pKi greater than or equal to 7?
Reply: 1.0
